The measured values listed here are drawn from ChEMBL document CHEMBL1201862.

Reported AC50 for target or system UniProtKB P11712, by entry.
Sequence (P11712 whole entry): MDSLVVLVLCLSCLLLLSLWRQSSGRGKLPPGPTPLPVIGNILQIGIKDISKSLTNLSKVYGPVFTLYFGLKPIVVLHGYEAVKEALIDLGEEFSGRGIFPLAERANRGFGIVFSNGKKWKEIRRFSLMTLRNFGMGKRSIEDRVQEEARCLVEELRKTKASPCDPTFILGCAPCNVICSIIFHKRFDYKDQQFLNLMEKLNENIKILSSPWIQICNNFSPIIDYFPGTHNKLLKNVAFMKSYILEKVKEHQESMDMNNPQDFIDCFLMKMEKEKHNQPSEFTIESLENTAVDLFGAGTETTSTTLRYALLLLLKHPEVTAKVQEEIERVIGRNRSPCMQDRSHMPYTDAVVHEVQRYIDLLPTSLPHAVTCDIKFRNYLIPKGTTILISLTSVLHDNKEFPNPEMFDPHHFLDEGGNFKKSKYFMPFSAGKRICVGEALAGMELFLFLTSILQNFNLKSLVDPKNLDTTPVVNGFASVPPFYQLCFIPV

Answered cases to consult:
c1ccc(-c2csc3ncn4cnnc4c23)cc1
20 µM (inconclusive)
CN(Cc1ccco1)c1ncnc2ccc(-c3ccccc3Cl)cc12
1.58 µM (inconclusive)
CCCc1c(O)c2ccccc2n(-c2ccccc2)c1=O
12.6 µM (inconclusive)
C[C@@H]1C[C@H](C)CN(S(=O)(=O)c2cc(Cl)c(Oc3ccc([N+](=O)[O-])cc3Cl)c(Cl)c2)C1
6.31 µM (inconclusive)

INPUT: I have this molecule here, O=c1onc(-c2cccs2)n1Cc1ccccc1 , and I need its recorded AC50.
OUTPUT: 31.6 µM (inconclusive)

INPUT: And what about the molecule COc1ccc2[nH]cc(CCNc3ccnc(-c4ccccc4C)n3)c2c1 ?
OUTPUT: 1.26 µM (inconclusive)

INPUT: And what about the molecule CCOC(=O)c1ccc(N2C(=O)CC(Nc3ccc(CCO)cc3)C2=O)cc1 (stereo not drawn) ?
OUTPUT: 6.31 µM (inconclusive)

INPUT: And what about the molecule COc1ccc(OC)c(C2C3=C(O)OCC3=Nc3cc4c(cc32)OCO4)c1 (stereo not drawn) ?
OUTPUT: 7.94 µM (inconclusive)

INPUT: And what about the molecule O=C(Oc1ccccc1)N1CCC2(CCCN(C(c3ccccc3)c3ccccc3)C2)CC1 ?
OUTPUT: 2 µM (inconclusive)

INPUT: And what about the molecule COc1ccc(C(C(=O)NC2CCCCC2)N(C(=O)Cc2c[nH]c3ccccc23)c2ccc(NC(C)=O)cc2)cc1OC (stereo not drawn) ?
OUTPUT: 12.6 µM (inconclusive)

INPUT: And what about the molecule COC(=O)c1cc(NC(=O)CC2NC3CCCCC3NC2=O)cc(C(=O)OC)c1 (stereo not drawn) ?
OUTPUT: 12.6 µM (inconclusive)

INPUT: And what about the molecule CCCn1c(=O)c2[nH]c(C3CCCC3)nc2n(CCCOC(=O)c2ccc(S(=O)(=O)F)cc2)c1=O ?
OUTPUT: 3.16 µM (inconclusive)

INPUT: And what about the molecule CCC(=O)NCc1c(Cl)cccc1-n1cccc1 ?
OUTPUT: 15.8 µM (inconclusive)
